Taken from patent US20230129721A1.

# Measurement Description: Radiochemical purity of [^18F]PI-2620 radiopharmaceutical composition over time at 40° C. by HPLC
# Assay type: physicochemical
# Assay Conditions: [^18F]PI-2620, ethanol and water for injection (10% ethanol), 50 mg/mL vitamin, no phosphate buffer, 2 hr
Readout: Purity (radiochemical purity) (%)

C/C1=C2/[N-][C@H]([C@H](CC(N)=O)[C@@]2(C)CCC(=O)NC[C@H](C)OP(=O)([O-])O[C@H]2[C@@H](O)[C@@H](n3cnc4cc(C)c(C)cc43)O[C@@H]2CO)[C@]2(C)N=C(/C(C)=C3N=C(/C=C4N=C1[C@@H](CCC(N)=O)C\4(C)C)[C@@H](CCC(N)=O)[C@]\3(C)CC(N)=O)[C@@H](CCC(N)=O)[C@]2(C)CC(N)=O.[Co+2] (stereo in doubt)    98.99
Nc1ccc(C(=O)O)cc1    98.71
Cc1ncc(C[n+]2csc(CCO)c2C)c(N)n1    98.97
Nc1ncnc2c1ncn2[C@@H]1O[C@H](COP(=O)(O)O)[C@@H](O)[C@H]1O [VB8, adenosine phosphate]    99.14

###

# Measurement Description: pH (paper) of [^18F]PI-2620 radiopharmaceutical composition over time at 40° C.
# Type: physicochemical
# Assay Conditions: 10% ethanol, water for injection, 50 mg/mL vitamin, 0 hr
Readout: PH (paper)

Cc1ncc(C[n+]2csc(CCO)c2C)c(N)n1    8
Nc1ncnc2c1ncn2[C@@H]1O[C@H](COP(=O)(O)O)[C@@H](O)[C@H]1O [VB8, adenosine phosphate]    6
C/C1=C2/[N-][C@H]([C@H](CC(N)=O)[C@@]2(C)CCC(=O)NC[C@H](C)OP(=O)([O-])O[C@H]2[C@@H](O)[C@@H](n3cnc4cc(C)c(C)cc43)O[C@@H]2CO)[C@]2(C)N=C(/C(C)=C3N=C(/C=C4N=C1[C@@H](CCC(N)=O)C\4(C)C)[C@@H](CCC(N)=O)[C@]\3(C)CC(N)=O)[C@@H](CCC(N)=O)[C@]2(C)CC(N)=O.[Co+2] (stereo in doubt)    6
Nc1ccc(C(=O)O)cc1    7

###

# Measurement Description: Radiochemical purity of [^18F]PI-2620 radiopharmaceutical composition over time at 40° C. by HPLC
# Type: physicochemical
# Assay Conditions: [^18F]PI-2620, 2 nM phosphate buffer and 10% ethanol, vitamin 50 mg/mL (control: sodium ascorbate), 4 hr
Readout: Purity (radiochemical purity) (%)

Cc1ncc(C[n+]2csc(CCO)c2C)c(N)n1 [VB1, thiamine]    98.97
O=C1O[C@H]([C@@H](O)CO)C([O-])=C1O.[Na+] [Na ascorbate, sodium ascorbate]    93.77
Nc1ccc(C(=O)O)cc1 [VB10, 4-aminobenzoic acid]    91.25
Nc1ncnc2c1ncn2[C@@H]1O[C@H](COP(=O)(O)O)[C@@H](O)[C@H]1O [VB8, adenosine phosphate]    92.46

###

# Measurement Description: pH (paper) of [^18F]PI-2620 radiopharmaceutical composition over time at 40° C.
# Format: physicochemical
# Assay Conditions: 10% ethanol, water for injection, 50 mg/mL vitamin, 4 hr
Readout: PH (paper)

C/C1=C2/[N-][C@H]([C@H](CC(N)=O)[C@@]2(C)CCC(=O)NC[C@H](C)OP(=O)([O-])O[C@H]2[C@@H](O)[C@@H](n3cnc4cc(C)c(C)cc43)O[C@@H]2CO)[C@]2(C)N=C(/C(C)=C3N=C(/C=C4N=C1[C@@H](CCC(N)=O)C\4(C)C)[C@@H](CCC(N)=O)[C@]\3(C)CC(N)=O)[C@@H](CCC(N)=O)[C@]2(C)CC(N)=O.[Co+2] (stereo in doubt)    6.5
Nc1ncnc2c1ncn2[C@@H]1O[C@H](COP(=O)(O)O)[C@@H](O)[C@H]1O [VB8, adenosine phosphate]    6
Cc1ncc(C[n+]2csc(CCO)c2C)c(N)n1    7
Nc1ccc(C(=O)O)cc1    7

###

# Measurement Description: Radiochemical purity of [^18F]PI-2620 radiopharmaceutical composition over time at 40° C. by HPLC
# Type: physicochemical
# Assay Conditions: [^18F]PI-2620, 2 nM phosphate buffer and 10% ethanol, vitamin 50 mg/mL (control: sodium ascorbate), 2 hr
Readout: Purity (radiochemical purity) (%)

Nc1ncnc2c1ncn2[C@@H]1O[C@H](COP(=O)(O)O)[C@@H](O)[C@H]1O [VB8, adenosine phosphate]    95.43
O=C1O[C@H]([C@@H](O)CO)C([O-])=C1O.[Na+] [Na ascorbate, sodium ascorbate]    95.53
Nc1ccc(C(=O)O)cc1 [VB10, 4-aminobenzoic acid]    94.44
Cc1ncc(C[n+]2csc(CCO)c2C)c(N)n1 [VB1, thiamine]    98.46

###

# Measurement Description: Radiochemical purity of [^18F]PI-2620 radiopharmaceutical composition over time at 40° C. by HPLC
# Format: physicochemical
# Assay Conditions: [^18F]PI-2620, ethanol and water for injection (10% ethanol), 50 mg/mL vitamin, no phosphate buffer, 6 hr
Readout: Purity (radiochemical purity) (%)

Cc1ncc(C[n+]2csc(CCO)c2C)c(N)n1    98.94
Nc1ncnc2c1ncn2[C@@H]1O[C@H](COP(=O)(O)O)[C@@H](O)[C@H]1O [VB8, adenosine phosphate]    98.2
Nc1ccc(C(=O)O)cc1    98.73
C/C1=C2/[N-][C@H]([C@H](CC(N)=O)[C@@]2(C)CCC(=O)NC[C@H](C)OP(=O)([O-])O[C@H]2[C@@H](O)[C@@H](n3cnc4cc(C)c(C)cc43)O[C@@H]2CO)[C@]2(C)N=C(/C(C)=C3N=C(/C=C4N=C1[C@@H](CCC(N)=O)C\4(C)C)[C@@H](CCC(N)=O)[C@]\3(C)CC(N)=O)[C@@H](CCC(N)=O)[C@]2(C)CC(N)=O.[Co+2] (stereo in doubt)    98.29

###

# Measurement Description: pH (paper) of [^18F]PI-2620 radiopharmaceutical composition over time at 40° C.
# Type: physicochemical
# Assay Conditions: 2 nM phosphate buffer and 10% ethanol, vitamin 50 mg/mL (control: sodium ascorbate), 4 hr
Readout: PH (paper)

Cc1ncc(C[n+]2csc(CCO)c2C)c(N)n1    5.5
Nc1ccc(C(=O)O)cc1    6
O=C1O[C@H]([C@@H](O)CO)C([O-])=C1O.[Na+] [Na ascorbate, sodium ascorbate]    6
Nc1ncnc2c1ncn2[C@@H]1O[C@H](COP(=O)(O)O)[C@@H](O)[C@H]1O [VB8, adenosine phosphate]    6

###

# Measurement Description: Radiochemical purity of [^18F]PI-2620 radiopharmaceutical composition over time at 40° C. by HPLC
# Assay type: physicochemical
# Assay Conditions: [^18F]PI-2620, ethanol and water for injection (10% ethanol), 50 mg/mL vitamin, no phosphate buffer, 0 hr
Readout: Purity (radiochemical purity) (%)

C/C1=C2/[N-][C@H]([C@H](CC(N)=O)[C@@]2(C)CCC(=O)NC[C@H](C)OP(=O)([O-])O[C@H]2[C@@H](O)[C@@H](n3cnc4cc(C)c(C)cc43)O[C@@H]2CO)[C@]2(C)N=C(/C(C)=C3N=C(/C=C4N=C1[C@@H](CCC(N)=O)C\4(C)C)[C@@H](CCC(N)=O)[C@]\3(C)CC(N)=O)[C@@H](CCC(N)=O)[C@]2(C)CC(N)=O.[Co+2] (stereo in doubt) [VB12, cobalamin]    98.33
Nc1ncnc2c1ncn2[C@@H]1O[C@H](COP(=O)(O)O)[C@@H](O)[C@H]1O [VB8, adenosine phosphate]    98.92
Cc1ncc(C[n+]2csc(CCO)c2C)c(N)n1 [VB1, thiamine]    98.92
Nc1ccc(C(=O)O)cc1 [VB10, 4-aminobenzoic acid]    99.15

###

# Measurement Description: pH (paper) of [^18F]PI-2620 radiopharmaceutical composition over time at 40° C.
# Assay type: physicochemical
# Assay Conditions: 2 nM phosphate buffer and 10% ethanol, vitamin 50 mg/mL (control: sodium ascorbate), 2 hr
Readout: PH (paper)

O=C1O[C@H]([C@@H](O)CO)C([O-])=C1O.[Na+] [Na ascorbate, sodium ascorbate]    6
Nc1ccc(C(=O)O)cc1    6
Nc1ncnc2c1ncn2[C@@H]1O[C@H](COP(=O)(O)O)[C@@H](O)[C@H]1O [VB8, adenosine phosphate]    6
Cc1ncc(C[n+]2csc(CCO)c2C)c(N)n1    5.5

###

# Measurement Description: pH (paper) of [^18F]PI-2620 radiopharmaceutical composition over time at 40° C.
# Type: physicochemical
# Assay Conditions: 2 nM phosphate buffer and 10% ethanol, vitamin 50 mg/mL (control: sodium ascorbate), 0 hr
Readout: PH (paper)

O=C1O[C@H]([C@@H](O)CO)C([O-])=C1O.[Na+] [Na ascorbate, sodium ascorbate]    6
Nc1ccc(C(=O)O)cc1    6
Nc1ncnc2c1ncn2[C@@H]1O[C@H](COP(=O)(O)O)[C@@H](O)[C@H]1O [VB8, adenosine phosphate]    6
Cc1ncc(C[n+]2csc(CCO)c2C)c(N)n1    5
